- Type: physicochemical
Non-standard residues stand in square brackets, D forms with d. Residues, ends and D or L forms follow the SMILES beside them.
parameter: Maximum Solubility
Kindly report the value followed by its unit.

N[C@@H](CC(=O)O)C(=O)N[C@@H](CCC(=O)O)C(=O)N[C@@H](Cc1ccc(O)cc1)C(=O)O [Ras 30-32] (H-Asp-Glu-Tyr-OH) = 800 µM
CC[C@H](C)[C@H](NC(=O)[C@H](CC(C)C)NC(=O)[C@H](CCC(N)=O)NC(=O)[C@@H](NC(=O)[C@@H](NC(=O)[C@@H](N)CC(C)C)[C@@H](C)O)[C@@H](C)CC)C(=O)N[C@@H](CCC(N)=O)C(=O)N[C@H](CC(N)=O)C(=O)N[C@@H](Cc1c[nH]cn1)C(=O)N[C@@H](Cc1ccccc1)C(=O)N[C@H](C(=O)N[C@@H](CC(=O)O)C(=O)N[C@@H](CCC(=O)O)C(=O)N[C@@H](Cc1ccc(O)cc1)C(=O)O)C(C)C [Ras 19-32(D-Asn)] (H-LTIQLIQ[dN]HFVDEY-OH) = 12 µM

In: What measured Maximum Solubility goes with CC[C@H](C)[C@H](NC(=O)[C@H](CC(C)C)NC(=O)[C@H](CCC(N)=O)NC(=O)[C@@H](NC(=O)[C@@H](NC(=O)[C@H](CC(C)C)NC(=O)[C@H](C)NC(=O)[C@@H](N)CO)[C@@H](C)O)[C@@H](C)CC)C(=O)N[C@@H](CCC(N)=O)C(=O)N[C@@H](CC(N)=O)C(=O)N[C@@H](Cc1c[nH]cn1)C(=O)N[C@@H](Cc1ccccc1)C(=O)N[C@H](C(=O)N[C@@H](CC(=O)O)C(=O)N[C@@H](CCC(=O)O)C(=O)N[C@@H](Cc1ccc(O)cc1)C(=O)O)C(C)C [Ras 17-32] ?
Out: 19 µM

In: What measured Maximum Solubility goes with CC[C@H](C)[C@H](NC(=O)[C@H](CC(C)C)NC(=O)[C@H](CCC(N)=O)NC(=O)[C@@H](NC(=O)[C@@H](NC(=O)[C@H](CC(C)C)NC(=O)[C@H](C)NC(=O)[C@@H](N)CO)[C@@H](C)O)[C@@H](C)CC)C(=O)N[C@@H](CCC(N)=O)C(=O)N[C@@H](CC(N)=O)C(=O)O [Ras 17-26] ?
Out: 600 µM

These entries and their values trace back to patent EP0496162A2.
